Where do the numbers come from? From paper PMC5397059.

assay: Intrinsic clearance (CLint) assay, mouse liver microsomes; assay type: in vitro ADME; conditions: liver blood flow
Non-standard residues stand in square brackets, D forms with d. Residues, ends and D or L forms follow the SMILES beside them. *: point of attachment. dPhe(4-Cl) = N[C@H](Cc1ccc(Cl)cc1)C(=O)O; NMeN = CN[C@@H](CC(N)=O)C(=O)O; NMeL = CN[C@@H](CC(C)C)C(=O)O; dNMeL = CN[C@H](CC(C)C)C(=O)O; dOrn = NCCC[C@@H](N)C(=O)O; tBu = CC(C)(C)*
This listing pairs molecules with measured % LBF Mouse.

{"molecule": "CC(C)C[C@@H]1NC(=O)[C@H](Cc2c[nH]c3ccccc23)NC(=O)[C@@H](CCCN)NC(=O)[C@H](CC(N)=O)N(C)C(=O)[C@H](C(C)C)NC(=O)[C@@H](CC(C)C)N(C)C1=O [Compound 25c] (cyclo(L[dNMeL]V[NMeN][dOrn]W))", "% LBF Mouse": "<16.3%"}
{"molecule": "CC(C)C[C@H]1NC(=O)[C@H](CC(C)C)N(C)C(=O)[C@H](Cc2c[nH]c3ccccc23)NC(=O)[C@@H](CCCN)NC(=O)[C@H](CC(N)=O)N(C)C(=O)[C@H](C(C)C)NC1=O [Compound 23c] (cyclo([NMeL][dL]V[NMeN][dOrn]W))", "% LBF Mouse": "30.00%"}
{"molecule": "CC[C@H](C)[C@@H]1NC(=O)[C@@H](CC(C)C)NC(=O)[C@H](CC(C)C)NC(=O)[C@H](Cc2c[nH]c3ccccc23)NC(=O)[C@@H](CCCN)NC(=O)[C@H](CC(N)=O)NC1=O [Compound 7c] (cyclo(IN[dOrn]WL[dL]))", "% LBF Mouse": "<16.27%"}
{"molecule": "CC[C@H](C)[C@@H]1NC(=O)[C@@H](CC(C)C)NC(=O)[C@H](CC(C)C)NC(=O)[C@H](Cc2c[nH]c3ccccc23)NC(=O)[C@@H](CCCN)NC(=O)[C@H](CO)NC1=O [Compound 10c] (cyclo(IS[dOrn]WL[dL]))", "% LBF Mouse": "<16.3%"}
{"molecule": "CC(C)C[C@@H]1NC(=O)[C@H](Cc2c[nH]c3ccccc23)NC(=O)[C@@H](CCCN)NC(=O)[C@H](CC(N)=O)NC(=O)[C@H](C(C)C)NC(=O)[C@@H](Cc2ccc(Cl)cc2)NC1=O [Compound 16c] (cyclo(L[dPhe(4-Cl)]VN[dOrn]W))", "% LBF Mouse": "19.21%"}
{"molecule": "CC[C@H](C)[C@@H]1NC(=O)[C@@H](CC(C)C)NC(=O)[C@H](CC(C)C)NC(=O)[C@H](Cc2c[nH]c3ccccc23)NC(=O)[C@@H](CCCN)NC(=O)[C@H](COC(C)(C)C)NC1=O [Compound 11c] (cyclo(IS(tBu)[dOrn]WL[dL]))", "% LBF Mouse": "<16.3%"}
{"molecule": "CC(C)C[C@@H]1NC(=O)[C@H](Cc2c[nH]c3ccccc23)NC(=O)[C@@H](CCCN)NC(=O)[C@H](CC(N)=O)NC(=O)[C@H](C(C)C)NC(=O)[C@@H](C)NC1=O [Compound 6c] (cyclo(L[dA]VN[dOrn]W))", "% LBF Mouse": "<16.27%"}
{"molecule": "CC[C@H](C)[C@@H]1NC(=O)[C@@H](CC(C)C)NC(=O)[C@H](CC(C)C)NC(=O)[C@H](Cc2c[nH]c3ccccc23)NC(=O)[C@@H](CCCNC(=N)N)NC(=O)[C@H](CC(N)=O)NC1=O [Compound 13c] (cyclo(IN[dR]WL[dL]))", "% LBF Mouse": "29.00%"}

###

pIC50: −log10 of the molar value. Non-standard residues stand in square brackets, D forms with d. Residues, ends and D or L forms follow the SMILES beside them. dOrn = NCCC[C@@H](N)C(=O)O

{"compound": "CC(C)C[C@@H]1NC(=O)[C@H](Cc2c[nH]c3ccccc23)NC(=O)[C@@H](CCCN)NC(=O)[C@H](CC(N)=O)NC(=O)[C@H](C(C)C)NC(=O)[C@@H](CC(C)C)NC1=O [Compound 1c, wollamide B] (cyclo([dOrn]WL[dL]VN))", "pIC50": 4.25}

###

assay: Plasma stability assay, human plasma; assay type: in vitro ADME; conditions: human, plasma; 2 h at 37°C, Table 1; read-out: Plasma stability (% remaining), Human Plasma
Non-standard residues stand in square brackets, D forms with d. Residues, ends and D or L forms follow the SMILES beside them. dOrn = NCCC[C@@H](N)C(=O)O

{"compound": "CC(C)C[C@@H]1NC(=O)[C@H](Cc2c[nH]c3ccccc23)NC(=O)[C@@H](CCCN)NC(=O)[C@H](CC(N)=O)NC(=O)[C@H](C(C)C)NC(=O)[C@@H](CC(C)C)NC1=O [Compound 1c, wollamide B] (cyclo([dOrn]WL[dL]VN))", "unitsSymbol": "%", "remaining at 2 h, 1 uM": 100}

###

assay: Intrinsic clearance (CLint) assay, mouse liver microsomes; format: in vitro ADME; settings: mouse liver microsomes
Non-standard residues stand in square brackets, D forms with d. Residues, ends and D or L forms follow the SMILES beside them. *: point of attachment. NMeN = CN[C@@H](CC(N)=O)C(=O)O; NMeL = CN[C@@H](CC(C)C)C(=O)O; dNMeL = CN[C@H](CC(C)C)C(=O)O; NMeV = CN[C@H](C(=O)O)C(C)C; dOrn = NCCC[C@@H](N)C(=O)O; tBu = CC(C)(C)*

{"molecule": "CC(C)C[C@@H]1NC(=O)[C@H](Cc2c[nH]c3ccccc23)NC(=O)[C@@H](CCCN)NC(=O)[C@H](CC(N)=O)NC(=O)[C@H](C)NC(=O)[C@@H](CC(C)C)NC1=O [Compound 5c] (cyclo(AN[dOrn]WL[dL]))", "CLint Mouse": "<0.48 mL/min/g tissue"}
{"molecule": "CSCC[C@@H]1NC(=O)[C@@H](CC(C)C)NC(=O)[C@H](CC(C)C)NC(=O)[C@H](Cc2c[nH]c3ccccc23)NC(=O)[C@@H](CCCN)NC(=O)[C@H](CC(N)=O)NC1=O [Compound 8c] (cyclo(L[dL]MN[dOrn]W))", "CLint Mouse": "<0.48 mL/min/g tissue"}
{"molecule": "CC(C)C[C@H]1NC(=O)[C@H](CC(C)C)N(C)C(=O)[C@H](Cc2c[nH]c3ccccc23)NC(=O)[C@@H](CCCN)NC(=O)[C@H](CC(N)=O)NC(=O)[C@H](C(C)C)N(C)C1=O [Compound 24c] (cyclo(N[dOrn]W[NMeL][dL][NMeV]))", "CLint Mouse": "1.79 mL/min/g tissue"}
{"molecule": "COc1ccc(C[C@@H]2NC(=O)[C@@H](CCCN)NC(=O)[C@H](CC(N)=O)NC(=O)[C@H](C(C)C)NC(=O)[C@@H](CC(C)C)NC(=O)[C@H](CC(C)C)NC2=O)cc1 [Compound 15c] (cyclo(L[dL]VN[dOrn]Y(Me)))", "CLint Mouse": "0.78 mL/min/g tissue"}
{"molecule": "CC(C)C[C@@H]1NC(=O)[C@H](Cc2c[nH]c3ccccc23)NC(=O)[C@@H](CCCN)NC(=O)[C@@H](CCCN)NC(=O)[C@H](C(C)C)NC(=O)[C@@H](CC(C)C)NC1=O [Compound 9c] (cyclo(L[dL]V[dOrn][dOrn]W))", "CLint Mouse": "0.57 mL/min/g tissue"}
{"molecule": "CC[C@H](C)[C@@H]1NC(=O)[C@@H](CC(C)C)NC(=O)[C@H](CC(C)C)NC(=O)[C@H](Cc2c[nH]c3ccccc23)NC(=O)[C@@H](CCCN)NC(=O)[C@H](COC(C)(C)C)NC1=O [Compound 11c] (cyclo(IS(tBu)[dOrn]WL[dL]))", "CLint Mouse": "<0.48 mL/min/g tissue"}
{"molecule": "CC(C)C[C@@H]1NC(=O)[C@@H](CC(C)C)NC(=O)[C@@H](CCCN)NC(=O)[C@H](CC(N)=O)NC(=O)[C@H](C(C)C)NC(=O)[C@H](Cc2c[nH]c3ccccc23)NC1=O [Compound 21c] (cyclo(LWVN[dOrn][dL]))", "CLint Mouse": "<0.50 mL/min/g tissue"}
{"molecule": "CC(C)C[C@@H]1NC(=O)[C@H](Cc2c[nH]c3ccccc23)NC(=O)[C@@H](CCCN)NC(=O)[C@H](CC(N)=O)N(C)C(=O)[C@H](C(C)C)NC(=O)[C@@H](CC(C)C)N(C)C1=O [Compound 25c] (cyclo(L[dNMeL]V[NMeN][dOrn]W))", "CLint Mouse": "<0.48 mL/min/g tissue"}

###

assay: Intrinsic clearance (CLint) assay, mouse liver microsomes; format: in vitro ADME; details: liver blood flow
Non-standard residues stand in square brackets, D forms with d. Residues, ends and D or L forms follow the SMILES beside them. dPhe(4-Cl) = N[C@H](Cc1ccc(Cl)cc1)C(=O)O; NMeV = CN[C@H](C(=O)O)C(C)C; dOrn = NCCC[C@@H](N)C(=O)O
# % LBF Mouse per record follows

{"compound": "CC(C)C[C@H]1NC(=O)[C@H](C)NC(=O)[C@H](Cc2c[nH]c3ccccc23)NC(=O)[C@@H](CCCN)NC(=O)[C@H](CC(N)=O)NC(=O)[C@H](C(C)C)NC1=O [Compound 2c] (cyclo(A[dL]VN[dOrn]W))", "% LBF Mouse": "<16.27%"}
{"compound": "CC[C@H](C)[C@@H]1NC(=O)[C@H](Cc2c[nH]c3ccccc23)NC(=O)[C@@H](CCCN)NC(=O)[C@H](CC(N)=O)NC(=O)[C@H](C(C)C)NC(=O)[C@@H](CC(C)C)NC1=O [Compound 19c] (cyclo(I[dL]VN[dOrn]W))", "% LBF Mouse": "<16.3%"}
{"compound": "CC(C)C[C@@H]1NC(=O)[C@H](C)NC(=O)[C@@H](CCCN)NC(=O)[C@H](CC(N)=O)NC(=O)[C@H](C(C)C)NC(=O)[C@@H](CC(C)C)NC1=O [Compound 3c] (cyclo(AL[dL]VN[dOrn]))", "% LBF Mouse": "<16.27%"}
{"compound": "CC(C)C[C@@H]1NC(=O)[C@H](Cc2c[nH]c3ccccc23)NC(=O)[C@@H](CCCN)NC(=O)[C@@H](CCCN)NC(=O)[C@H](C(C)C)NC(=O)[C@@H](CC(C)C)NC1=O [Compound 9c] (cyclo(L[dL]V[dOrn][dOrn]W))", "% LBF Mouse": "18.68%"}
{"compound": "CC[C@H](C)[C@@H]1NC(=O)[C@@H](Cc2ccc(Cl)cc2)NC(=O)[C@H](CC(C)C)NC(=O)[C@H](Cc2c[nH]c3ccccc23)NC(=O)[C@@H](CCCN)NC(=O)[C@@H](CCCN)NC1=O [Compound 18c] (cyclo(I[dOrn][dOrn]WL[dPhe(4-Cl)]))", "% LBF Mouse": "28.4%"}
{"compound": "COc1ccc(C[C@@H]2NC(=O)[C@@H](CCCN)NC(=O)[C@H](CC(N)=O)NC(=O)[C@H](C(C)C)NC(=O)[C@@H](CC(C)C)NC(=O)[C@H](CC(C)C)NC2=O)cc1 [Compound 15c] (cyclo(L[dL]VN[dOrn]Y(Me)))", "% LBF Mouse": "24.00%"}
{"compound": "CC(C)C[C@@H]1NC(=O)[C@H](Cc2c[nH]c3ccccc23)NC(=O)[C@@H](CCCN)NC(=O)[C@H](CC(N)=O)NC(=O)[C@H](C(C)C)N(C)C(=O)[C@@H](CC(C)C)NC1=O [Compound 22c] (cyclo(L[dL][NMeV]N[dOrn]W))", "% LBF Mouse": "<16.3%"}
{"compound": "CC(C)C[C@H]1NC(=O)[C@@H](Cc2ccc(Cl)cc2)NC(=O)[C@H](Cc2c[nH]c3ccccc23)NC(=O)[C@@H](CCCN)NC(=O)[C@H](CC(N)=O)NC(=O)[C@H](C(C)C)NC1=O [Compound 17c] (cyclo(N[dOrn]W[dPhe(4-Cl)][dL]V))", "% LBF Mouse": "17.9%"}
{"compound": "CC(C)C[C@@H]1NC(=O)[C@@H](CC(C)C)NC(=O)[C@@H](CCCN)NC(=O)[C@H](CC(N)=O)NC(=O)[C@H](C(C)C)NC(=O)[C@H](Cc2c[nH]c3ccccc23)NC1=O [Compound 21c] (cyclo(LWVN[dOrn][dL]))", "% LBF Mouse": "<16.83%"}
{"compound": "CC(C)C[C@@H]1NC(=O)[C@@H](Cc2ccc(Cl)cc2)NC(=O)[C@@H](CCCN)NC(=O)[C@H](CC(N)=O)NC(=O)[C@H](C(C)C)NC(=O)[C@@H](CC(C)C)NC1=O [Compound 14c] (cyclo(L[dL]VN[dOrn][dPhe(4-Cl)]))", "% LBF Mouse": "<16.27%"}
{"compound": "CC(C)C[C@@H]1NC(=O)[C@H](Cc2c[nH]c3ccccc23)NC(=O)[C@@H](CCCN)NC(=O)[C@H](CC(N)=O)NC(=O)[C@H](C)NC(=O)[C@@H](CC(C)C)NC1=O [Compound 5c] (cyclo(AN[dOrn]WL[dL]))", "% LBF Mouse": "<16.27%"}
{"compound": "CC[C@H](C)[C@@H]1NC(=O)[C@H](CC(C)C)NC(=O)[C@H](Cc2c[nH]c3ccccc23)NC(=O)[C@@H](CCCN)NC(=O)[C@H](CC(N)=O)NC(=O)[C@H](C(C)C)NC1=O [Compound 20c] (cyclo(IVN[dOrn]WL))", "% LBF Mouse": "<16.3%"}
